biological target: AgNbp2; assay: SPOT peptide array binding signal intensity (averaged, normalized) (arbitrary units (background-subtracted, floor 0; scale differs between SH3 domains)); higher = stronger binding of the SH3 domain to the peptide
OBSERVED PROPERTY: SPOT peptide array binding signal intensity
Give your answer as a number; write no unit.

| BINDER | MEASURED |
| --- | --- |
| PKMLPIPSKPTLFDL | 91 |
| NGRRRPKFRVQLSGN | 430 |
| PVLPPPRSPNRPTLS | 1.5 |
| RNNRPVPPPPPMRTT | 59.5 |
| KRKRFNLLLPKPYLT | 99 |

Could you now consider this next binder?
[Q] Fill blank: measured SPOT peptide array binding signal intensity of the binder HVRRSILALPLGVLL is ____.
[A] 57
